Tested on: HT-29 (monolayer culture of a human colon carcinoma)
Test: Cytotoxic activity screening, HT-29 cells
Assay type: cell-based
Conditions: Homo sapiens, HT-29, 72 h, three days of incubation, Crystal Violet, approximate IC50
Decide using IC50 alone. Strictly below 1 ng/mL: Criterion met. Equal to or above 1 ng/mL: Criterion not met.

INSERT INTO assay_data (compound, discrete_label) VALUES
  ('COc1c(C)cc2c(c1O)[C@@H]1C3[C@@H]4SC[C@H](NC(=O)CC(C)C)C(=O)OC[C@@H](c5c6c(c(C)c(OC(C)=O)c54)OCO6)N3[C@@H](O)[C@H](C2)N1C (stereo partly shown) [Compound 4d]', 'Criterion met'),
  ('CC(=O)Oc1c(C)c2c(c3c1[C@H]1SC[C@H](N)C(=O)OC[C@@H]3N3C1[C@H]1c4c(cc(C)c(O)c4O)C[C@@H]([C@@H]3C#N)N1C)OCO2 (stereo partly shown) [Compound 24]', 'Criterion not met'),
  ('COc1c(C)cc2c(c1O)[C@@H]1C3[C@@H]4SC[C@H](OC(=O)C(F)(F)F)C(=O)OC[C@@H](c5c6c(c(C)c(OC(C)=O)c54)OCO6)N3[C@@H](C#N)[C@H](C2)N1C (stereo partly shown) [Compound 17b]', 'Criterion not met'),
  ('COc1c(C)cc2c(c1O)[C@@H]1C3[C@@H]4SC[C@H](NC(=O)C(F)(F)F)C(=O)OC[C@@H](c5c6c(c(C)c(OC(C)=O)c54)OCO6)N3[C@@H](O)[C@H](C2)N1C (stereo in doubt) [Compound 4b]', 'Criterion met'),
  ('COc1c(C)cc2c(c1O)[C@@H]1C3[C@@H]4SC[C@H](NC(=O)C(NC(=O)C(C)NC(C)=O)C(C)C)C(=O)OC[C@@H](c5c6c(c(C)c(OC(C)=O)c54)OCO6)N3[C@@H](O)[C@H](C2)N1C (stereo partly shown) [Compound 4t]', 'Criterion not met'),
  ('CC(=O)N[C@@H]1CS[C@@H]2c3c(OC(C)=O)c(C)c4c(c3[C@H](COC1=O)N1C2[C@H]2c3c(cc(C)c(O)c3O)C[C@@H]([C@@H]1C#N)N2C)OCO4 (stereo partly shown) [Compound 26]', 'Criterion not met'),
  ('CCCN[C@H]1CS[C@@H]2c3c(OC(C)=O)c(C)c4c(c3[C@H](COC1=O)N1C2[C@H]2c3c(cc(C)c(OC)c3O)C[C@@H]([C@@H]1C#N)N2C)OCO4 (stereo partly shown) [Compound 3o]', 'Criterion not met'),
  ('COc1c(C)cc2c(c1O)[C@@H]1C3[C@@H]4SC[C@H](NC(=O)CCCCC5SCC6NC(=O)NC65)C(=O)OC[C@@H](c5c6c(c(C)c(OC(C)=O)c54)OCO6)N3[C@@H](O)[C@H](C2)N1C (stereo partly shown) [Compound 4k]', 'Criterion not met'),
  ('CCCC(=O)N[C@H]1CS[C@@H]2c3c(OC(C)=O)c(C)c4c(c3[C@H](COC1=O)N1C2[C@H]2c3c(cc(C)c(OC)c3O)C[C@@H]([C@@H]1C#N)N2C)OCO4 (stereo partly shown) [Compound 3c]', 'Criterion met'),
  ('COc1c(C)cc2c(c1O)[C@@H]1C3[C@@H]4SC[C@H](NC(=O)C(NC(=O)C(C)NC(C)=O)C(C)C)C(=O)OC[C@@H](c5c6c(c(C)c(OC(C)=O)c54)OCO6)N3[C@@H](C#N)[C@H](C2)N1C (stereo partly shown) [Compound 3t]', 'Criterion not met'),
  ('CCCCCCCCCCCCCCCC(=O)O[C@H]1CS[C@@H]2c3c(OC(C)=O)c(C)c4c(c3[C@H](COC1=O)N1C2[C@H]2c3c(cc(C)c(OC)c3O)C[C@@H]([C@@H]1O)N2C)OCO4 (stereo partly shown) [Compound 21f]', 'Criterion not met'),
  ('COc1c(C)cc2c(c1O)[C@@H]1C3[C@@H]4SC[C@@H](O)C(=O)OC[C@@H](c5c6c(c(C)c(OC(C)=O)c54)OCO6)N3[C@@H](C#N)[C@H](C2)N1C (stereo partly shown) [Compound 16*]', 'Criterion not met');
